# Tested on: IGROV1 ovarian
# test: NCI-60 one-dose screen, 48 h (100 = growth as untreated, 0 = no growth, -100 = all killed)
# test-conditions: 10 µM unless noted
This is part of a sample that, as a whole, favours compounds with a hit. Of some 83,000 tested, about 20% had one in any assay.
value-kind: growth (%)
Provide only the numeric value, understood in %.

Consider the reported growth for these compounds:
compound	growth, %
O=C1NCN(c2ccccc2)C12CCN(CCCC(c1ccc(F)cc1)c1ccc(F)cc1)CC2	47.7
O=C(Cc1ccccn1)C(F)(F)C(F)(F)C(F)(F)F	123
CCCCCCCCCCCCCCCCCc1nccn1CCO	68.5
CCOc1ccccc1C(=O)OCC(=O)Nc1cccc(S(=O)(=O)N(C)C)c1	98.5
COc1ncc(-c2ccc3nccc(C#CCN4CCN(S(C)(=O)=O)CC4)c3c2)cc1NS(=O)(=O)c1ccc(F)cc1F	-35.9
C=C(C)[C@@H]1C[C@H](O)Cc2cc(Cl)cc(Cl)c2N1	105

Query block: Value lookup for growth; key = COC(=O)[C@]1(CCSC)N[C@H](c2cn(-c3ccccc3)nc2C)[C@@H]2C(=O)N(c3ccc(C)cc3)C(=O)[C@@H]21
Result block: 115

Query block: Value lookup for growth; key = CN(C)c1nc(N)nc(Cn2c(-c3nonc3N)nc3ccccc32)n1
Result block: 95.7

Query block: Value lookup for growth; key = Nc1ccc(C2=NN(c3ccccc3)C(c3ccc(Cl)cc3)C2)cc1 (stereo not given)
Result block: 94.5

Query block: Value lookup for growth; key = CN=C(NC)N/N=C(C)\C=N\NC(=NC)NC
Result block: 112

* * *

# System: SF-268 CNS
# test: NCI-60 one-dose screen, 48 h (100 = growth as untreated, 0 = no growth, -100 = all killed)
# test-conditions: 10 µM unless noted
About 83,000 compounds went through this panel and 20% of them were active in at least one assay; those are over-represented in the sample as a whole.
value-kind: growth (%)
Provide only the numeric value, understood in %.

Consider the reported growth for these compounds:
compound	study-system	growth / %
COc1ccc2c(c1)C(=O)c1c-2c(=O)n(CCCCCCC(=O)NO)c2ccccc12	SF-268 CNS	10.1
CSc1nnc(C2=CC(=O)c3ccccc3C2=O)n1-c1ccccc1	SF-268 CNS	92

Query block: Provide the documented growth with SF-268 CNS as the system for COc1ccc(C2=NN(C(C)=O)C(c3cc(OC)c(OC)c(OC)c3)C2)cc1 (stereo not given)
Result block: 94.4

Query block: Provide the documented growth with SF-268 CNS as the system for N=c1ccn2c(n1)O[C@@H]1[C@@H](O)[C@H](CO)O[C@@H]12
Result block: 65.8

Query block: Provide the documented growth with SF-268 CNS as the system for Nc1nc(N)c([N+](=O)[O-])c(=O)[nH]1
Result block: 115

Query block: Provide the documented growth with SF-268 CNS as the system for COc1ccc(-c2c(-c3cc(OC)c(OC)c(OC)c3)noc2N)cc1
Result block: 23.8

Query block: Provide the documented growth with SF-268 CNS as the system for CC(=O)Oc1ccc(C23c4ccccc4C2(OC(C)=O)c2cc(OC(C)=O)ccc23)cc1 (stereo not given)
Result block: 94.3

Query block: Provide the documented growth with SF-268 CNS as the system for c1csc([C@@H]2C[C@@H]3Cc4ccc5ccccc5c4N2O3)c1
Result block: 108

Value source: PubChem BioAssay (NCI)
